test: Single ascending dose study, fasted and fed: safety and non-compartmental plasma PK; assay type: in vivo, healthy volunteers (human); details: human, plasma, oral, 800 mg, median; single 800 mg dose, fasting state; plasma; N=8; read-out: Cmax
PROPERTY LABEL: Cmax (ng/mL)
Lab book: enter the figure in ng/mL, no units written.

Which Cmax reading was recorded for the compound CC(C)(C)OC(=O)N[C@H]1CCCCC/C=C\[C@@H]2C[C@@]2(C(=O)NS(=O)(=O)C2CC2)NC(=O)[C@@H]2C[C@@H](OC(=O)N3Cc4cccc(F)c4C3)CN2C1=O ? 216

###

assay: Single ascending dose study, fasted and fed: safety and non-compartmental plasma PK; type: in vivo, healthy volunteers (human); settings: human, plasma, oral, 1600 mg, 1600 mg fasted cohort, single dose; read-out: median AUC0-inf
PROPERTY LABEL: AUC0-inf (ng·h/mL)
Number only, in ng·h/mL; omit the unit.

Form field: reported AUC0-inf of CC(C)(C)OC(=O)N[C@H]1CCCCC/C=C\[C@@H]2C[C@@]2(C(=O)NS(=O)(=O)C2CC2)NC(=O)[C@@H]2C[C@@H](OC(=O)N3Cc4cccc(F)c4C3)CN2C1=O 737

###

assay: Single ascending dose study, fasted and fed: safety and non-compartmental plasma PK; type: in vivo, healthy volunteers (human); conditions: human, plasma, oral, 400 mg, median; single 400 mg dose (Fed); plasma; N=10; read-out: Tmax
PROPERTY LABEL: Tmax
Answer shape: numeric part, then the unit.

Endpoint output: Tmax of CC(C)(C)OC(=O)N[C@H]1CCCCC/C=C\[C@@H]2C[C@@]2(C(=O)NS(=O)(=O)C2CC2)NC(=O)[C@@H]2C[C@@H](OC(=O)N3Cc4cccc(F)c4C3)CN2C1=O . Value? 2.5 h

###

assay: Single ascending dose study, fasted and fed: safety and non-compartmental plasma PK; type: in vivo, healthy volunteers (human); details: human, plasma, oral, 400 mg, median; single 400 mg dose (Fasted); plasma; N=10; read-out: T1/2 (converted)
PROPERTY LABEL: half-life (h)
Only the number, expressed in h, is required.

Query (compound): CC(C)(C)OC(=O)N[C@H]1CCCCC/C=C\[C@@H]2C[C@@]2(C(=O)NS(=O)(=O)C2CC2)NC(=O)[C@@H]2C[C@@H](OC(=O)N3Cc4cccc(F)c4C3)CN2C1=O [ITMN-191] ; field requested: half-life 1.53

###

target: NS3-NS4 (Hepatitis C virus genotype 1a, UniProt P27958); experiment: cell-based; conditions: EC50, NS3-NS4 activity
Sequence (P27958 1027-1657): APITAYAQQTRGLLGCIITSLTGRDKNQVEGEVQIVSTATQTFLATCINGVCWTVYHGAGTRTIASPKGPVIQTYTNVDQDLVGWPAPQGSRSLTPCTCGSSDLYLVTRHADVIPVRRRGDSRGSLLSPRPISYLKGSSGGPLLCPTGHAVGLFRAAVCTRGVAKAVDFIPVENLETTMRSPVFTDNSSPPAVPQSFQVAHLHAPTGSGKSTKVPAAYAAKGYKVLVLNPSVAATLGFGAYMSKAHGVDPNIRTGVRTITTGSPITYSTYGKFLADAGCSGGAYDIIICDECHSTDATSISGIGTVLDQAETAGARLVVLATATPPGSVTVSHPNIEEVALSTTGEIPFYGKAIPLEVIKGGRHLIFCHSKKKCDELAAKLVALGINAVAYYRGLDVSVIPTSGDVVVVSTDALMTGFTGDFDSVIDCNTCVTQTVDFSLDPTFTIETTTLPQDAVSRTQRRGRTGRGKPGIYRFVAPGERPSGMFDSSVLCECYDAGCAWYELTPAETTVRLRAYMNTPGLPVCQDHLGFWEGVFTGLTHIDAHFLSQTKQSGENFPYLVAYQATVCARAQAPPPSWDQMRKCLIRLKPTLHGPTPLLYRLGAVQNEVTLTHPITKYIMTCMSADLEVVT
Sequence (P27958 1658-1711): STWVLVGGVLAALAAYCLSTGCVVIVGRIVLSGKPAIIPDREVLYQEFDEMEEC
PROPERTY LABEL: EC50

Consider the following illustrative entries.
COc1csc(S(=O)(=O)NC(=O)[C@@]23C[C@H]2/C=C\CCCCC[C@H](NC(=O)OC(C)(C)C)C(=O)N2C[C@H](OC(=O)N4Cc5cccc(F)c5C4)C[C@H]2C(=O)N3)c1: < 0.1 µM
CC(C)(C)OC(=O)N[C@H]1CCOCC/C=C\[C@@H]2C[C@@]2(C(=O)NS(=O)(=O)c2cc(Cl)sc2Cl)NC(=O)[C@@H]2C[C@@H](OC(=O)N3Cc4cccc(Cl)c4C3)CN2C1=O: < 0.1 µM
CN(C(=O)N[C@H]1CCCCC/C=C\[C@@H]2C[C@@]2(C(=O)NS(=O)(=O)C2CC2)NC(=O)[C@@H]2C[C@@H](OC(=O)N3Cc4cccc(F)c4C3)CN2C1=O)C1CCCC1: < 0.1 µM
CCC(C)(C)OC(=O)N[C@H]1CCCCC/C=C\[C@@H]2C[C@@]2(C(=O)NS(=O)(=O)c2ccc(Cl)cc2)NC(=O)[C@@H]2C[C@@H](OC(=O)N3Cc4cccc(F)c4C3)CN2C1=O: < 0.1 µM
CC(C)CN(C)C(=O)N[C@H]1CCCCC/C=C\[C@@H]2C[C@@]2(C(=O)NS(=O)(=O)C2CC2)NC(=O)[C@@H]2C[C@@H](OC(=O)N3Cc4cccc(F)c4C3)CN2C1=O: < 0.1 µM

Continue with the next compound.
Can you look up the measured EC50 of O=C1N[C@]2(C(=O)NS(=O)(=O)C3CC3)C[C@H]2/C=C\CCCCC[C@H](NC(=O)C2(C(F)(F)F)CC2)C(=O)N2C[C@H](OC(=O)N3Cc4cccc(F)c4C3)C[C@@H]12 for me? < 0.1 µM

###

assay: Single ascending dose study, fasted and fed: safety and non-compartmental plasma PK; type: in vivo, healthy volunteers (human); conditions: human, plasma, oral, 1600 mg, Harmonic Mean of 10 subjects; single 1600 mg dose, Fasted; read-out: Cmax
PROPERTY LABEL: Cmax

May I ask what Cmax has been recorded for CC(C)(C)OC(=O)N[C@H]1CCCCC/C=C\[C@@H]2C[C@@]2(C(=O)NS(=O)(=O)C2CC2)NC(=O)[C@@H]2C[C@@H](OC(=O)N3Cc4cccc(F)c4C3)CN2C1=O ? 453 ng/mL

###

For reference, IC50 measured on NS3-NS4 (Hepatitis C virus genotype 1a, UniProt P27958):

O=C1N[C@]2(C(=O)NS(=O)(=O)C3CC3)C[C@H]2/C=C\CCCCC[C@H](Nc2nc(-c3cccc(C(F)(F)F)c3)cs2)C(=O)N2C[C@H](OC(=O)N3Cc4cccc(F)c4C3)C[C@@H]12: < 100 nM
Cc1cc(S(=O)(=O)NC(=O)[C@@]23C[C@H]2/C=C\CCCCC[C@H](NC(=O)OC(C)(C)C)C(=O)N2C[C@H](OC(=O)N4Cc5cccc(F)c5C4)C[C@H]2C(=O)N3)sc1C: < 100 nM

Let us examine a further case.
Lab note: need IC50 for Cc1csc(S(=O)(=O)NC(=O)[C@@]23C[C@H]2CCCCCCC[C@H](NC(=O)OC(C)(C)C)C(=O)N2C[C@H](OC(=O)N4Cc5cccc(F)c5C4)C[C@H]2C(=O)N3)c1 on NS3-NS4 (Hepatitis C virus genotype 1a, UniProt P27958), anyone have it? < 100 nM

###

assay: Single ascending dose study, fasted and fed: safety and non-compartmental plasma PK; type: in vivo, healthy volunteers (human); settings: human, plasma, oral, 1600 mg, Mean of 10 subjects; single 1600 mg dose, Fed; read-out: t½ (converted)
PROPERTY LABEL: half-life (h)
Respond numerically; units are h and should not be typed.

I have this compound here, CC(C)(C)OC(=O)N[C@H]1CCCCC/C=C\[C@@H]2C[C@@]2(C(=O)NS(=O)(=O)C2CC2)NC(=O)[C@@H]2C[C@@H](OC(=O)N3Cc4cccc(F)c4C3)CN2C1=O , and I need its recorded half-life. 2.56

###

experiment: Single ascending dose study, fasted and fed: safety and non-compartmental plasma PK; type: in vivo, healthy volunteers (human); details: human, plasma, oral, 1600 mg, Mean of 10 subjects; single 1600 mg dose, Fasted; read-out: AUC0-inf
PROPERTY LABEL: AUC0-inf
Reply with a number, then the unit it belongs to.

Bench note: what AUC0-inf did CC(C)(C)OC(=O)N[C@H]1CCCCC/C=C\[C@@H]2C[C@@]2(C(=O)NS(=O)(=O)C2CC2)NC(=O)[C@@H]2C[C@@H](OC(=O)N3Cc4cccc(F)c4C3)CN2C1=O show? 691 ng·h/mL

###

experiment: Single ascending dose study, fasted and fed: safety and non-compartmental plasma PK; assay type: in vivo, healthy volunteers (human); details: human, plasma, oral, 1600 mg, Harmonic Mean of 10 subjects; single 1600 mg dose, Fed; read-out: AUC0-inf
PROPERTY LABEL: AUC0-inf
Remember to put the unit after the number in your answer.

Which AUC0-inf value is on record for CC(C)(C)OC(=O)N[C@H]1CCCCC/C=C\[C@@H]2C[C@@]2(C(=O)NS(=O)(=O)C2CC2)NC(=O)[C@@H]2C[C@@H](OC(=O)N3Cc4cccc(F)c4C3)CN2C1=O ? 949 ng·h/mL

###

Assay: Single ascending dose study, fasted and fed: safety and non-compartmental plasma PK
Assay type: in vivo, healthy volunteers (human)
Conditions: human, plasma, oral, 1600 mg, Median of 10 subjects; single 1600 mg dose, Fasted; read-out: Tmax
Procedure: A single ascending dose (SAD) study of the compound 100 was conducted in healthy volunteers. The compound 100 was administered as monotherapy both with and without food. The safety and pharmacokinetic profile of the single dose of the compound 100 was assessed. Interim, blinded data were used for Pharmacokinetic (PK) study relating to food effects. […] The upper and lower limits of quantitation (ULOQ and LLOQ) are 100 and 0.01 ng/mL, respectively. […]
PROPERTY LABEL: Tmax (min)
Kindly provide the numeric value in min only, without the unit symbol.

Which Tmax reading was recorded for the compound CC(C)(C)OC(=O)N[C@H]1CCCCC/C=C\[C@@H]2C[C@@]2(C(=O)NS(=O)(=O)C2CC2)NC(=O)[C@@H]2C[C@@H](OC(=O)N3Cc4cccc(F)c4C3)CN2C1=O ? 30

###

assay: Single ascending dose study, fasted and fed: safety and non-compartmental plasma PK; type: in vivo, healthy volunteers (human); conditions: human, plasma, oral, in most subjects; read-out: terminal half-life
PROPERTY LABEL: half-life

Returns the measured half-life for the input compound. Input: CC(C)(C)OC(=O)N[C@H]1CCCCC/C=C\[C@@H]2C[C@@]2(C(=O)NS(=O)(=O)C2CC2)NC(=O)[C@@H]2C[C@@H](OC(=O)N3Cc4cccc(F)c4C3)CN2C1=O 1 to 2 h
